The measurements presented in this section are drawn from the NIST ThermoML archive (doi:10.1021/je049556i).

Assign mass density to each entry below.
Settings: 308.15 K; 101 kPa; Liquid
± gives the expanded uncertainty stated by the source.
Answers without a unit are incomplete; give the number and then its unit.

So for CCCO [propan-1-ol] , the logged mass density turned out to be 790.53 ± 2.4 kg/m3

So for CCCCO [butan-1-ol] , the logged mass density turned out to be 798.2 ± 2.4 kg/m3

So for CC1OC(C)OC(C)O1 (centres undefined) [2,4,6-trimethyl-1,3,5-trioxane] , the logged mass density turned out to be 976.44 ± 1.9 kg/m3

So for CCO [ethanol] , the logged mass density turned out to be 776.48 ± 2.4 kg/m3

###

Conditions: 298.15 K; 101 kPa; Liquid
Test Readout: mass density (kg/m3)
Output spec: scalar in kg/m3, unitless text.

So for CC1OC(C)OC(C)O1 (centres undefined) , the logged mass density turned out to be 988.35

So for CCO , the logged mass density turned out to be 785.06

So for CCCCO , the logged mass density turned out to be 805.84

So for CCCO , the logged mass density turned out to be 799.6

###

Details: 298.15 K; 101 kPa; Liquid
Test Readout: viscosity (mPa·s)
Output spec: scalar in mPa·s, unitless text.

So for CCCO [propan-1-ol] , the logged viscosity turned out to be 1.943

So for CCO [ethanol] , the logged viscosity turned out to be 1.083

So for CC1OC(C)OC(C)O1 (centres undefined) [2,4,6-trimethyl-1,3,5-trioxane] , the logged viscosity turned out to be 1.107

So for CCCCO [butan-1-ol] , the logged viscosity turned out to be 2.618

###

Conditions: 303.15 K; 101 kPa; Liquid
Test Readout: viscosity (mPa·s)
Output spec: scalar in mPa·s, unitless text.

So for CCCO , the logged viscosity turned out to be 1.725

So for CCO , the logged viscosity turned out to be 0.99

So for CC1OC(C)OC(C)O1 (centres undefined) , the logged viscosity turned out to be 1.001

So for CCCCO , the logged viscosity turned out to be 2.297

###

Details: 303.15 K; 101 kPa; Liquid
Assign mass density to each entry below.
Output spec: scalar in kg/m3, unitless text.

So for CCCCO [butan-1-ol] , the logged mass density turned out to be 802

So for CCCO [propan-1-ol] , the logged mass density turned out to be 794.64

So for CC1OC(C)OC(C)O1 (centres undefined) [2,4,6-trimethyl-1,3,5-trioxane] , the logged mass density turned out to be 982.64

So for CCO [ethanol] , the logged mass density turned out to be 780.74

###

Assign viscosity to each entry below.
Conditions: 308.15 K; 101 kPa; Liquid
Output spec: scalar in mPa·s, unitless text.

So for CCCO , the logged viscosity turned out to be 1.537

So for CCO , the logged viscosity turned out to be 0.895

So for CCCCO , the logged viscosity turned out to be 2.032

So for CC1OC(C)OC(C)O1 (centres undefined) , the logged viscosity turned out to be 0.907
